# Tested on: GST-tagged Cn
# procedureText: PEPperPRINT peptide microarray binding assay with GST-tagged Cn
# experimentalSetup: mean over the chip locations listed for the peptide (two spots)
measuredQuantity: Chip Fluorescence (mean)
Keep the answer to the number alone.

Fill in: Chip Fluorescence (mean) on GST-tagged Cn, entry ADEANPEITITPPELP [SeqRBMlowT_372]
1.325

Fill in: Chip Fluorescence (mean) on GST-tagged Cn, entry GSDDCPNVIVHIPHED [SeqRBM_9050]
0.1112

Fill in: Chip Fluorescence (mean) on GST-tagged Cn, entry RMMEPQNRGFKGCTES [Seqshuffled_509]
1.748

Fill in: Chip Fluorescence (mean) on GST-tagged Cn, entry NDHNTNDWSFELGQTV [Seqshuffled_9000]
1.051

Fill in: Chip Fluorescence (mean) on GST-tagged Cn, entry TFHTNPQYRIKLEEPD [SeqRBMlowT_4495]
1.049

Fill in: Chip Fluorescence (mean) on GST-tagged Cn, entry LLDDVPDVVVHPPEED [SeqRBMlowT_144]
2.238

Fill in: Chip Fluorescence (mean) on GST-tagged Cn, entry KAYINPFMTFIEGGRK [SeqRBMlowT_3627]
0.4696

Fill in: Chip Fluorescence (mean) on GST-tagged Cn, entry GTSGGFPQTDRSHKKQ [SeqRBM_413]
-0.2581

Fill in: Chip Fluorescence (mean) on GST-tagged Cn, entry EGKMDPELYISTVEAQ [SeqRBM_3392]
0.1296

Fill in: Chip Fluorescence (mean) on GST-tagged Cn, entry TFWTNPQFRITLEEED [SeqRBMlowT_658]
1.41

Fill in: Chip Fluorescence (mean) on GST-tagged Cn, entry QHMSVPKIQVTPTEIE [SeqRBM_9954]
2.718

Fill in: Chip Fluorescence (mean) on GST-tagged Cn, entry ARSFCPHRQVLSCKPK [SeqRBM_8304]
0.2408

Fill in: Chip Fluorescence (mean) on GST-tagged Cn, entry RKDSAVTQWGFSNLWA [Seqrandom_9950]
1.033

Fill in: Chip Fluorescence (mean) on GST-tagged Cn, entry PSALIPSLSMDPSMSE [SeqRBM_6067]
0.6019
